test system: S. aureus; experiment: MIC against S. aureus strains; type: cell-based; conditions: S. aureus ATCC 29213, 24 h
Experimental Readout: MIC (μg/mL) 24 h

S. aureus MIC (μg/mL) 24 h of Nc1ccc(-c2nc(-c3ccc(Oc4ccc(C(F)(F)F)cc4)cc3)no2)cc1F is 2 µg/mL

Tested system S. aureus; MIC (μg/mL) 24 h recorded for CC(C)(C)OC(=O)N1CCC(Nc2c[nH]nc2-c2nc(-c3ccc(Oc4ccc(C(F)(F)F)cc4)cc3)no2)CC1 was >128 µg/mL

Form field MIC (μg/mL) 24 h for item Nc1cc(-c2nc(-c3ccc(Oc4ccc(C(F)(F)F)cc4)cc3)no2)cnc1O on S. aureus: >128 µg/mL

Short answer on S. aureus for FC(F)(F)c1ccc(Oc2ccc(-c3noc(-c4ccc(Br)cc4)n3)cc2)cc1 , MIC (μg/mL) 24 h: >128 µg/mL

// returns MIC (μg/mL) 24 h for FC(F)(F)c1ccc(Oc2ccc(-c3noc(-c4c[nH]cn4)n3)cc2)cc1 with S. aureus; value = 2 µg/mL

The recorded MIC (μg/mL) 24 h with S. aureus for FC(F)(F)c1ccc(Oc2ccc(-c3noc(-c4n[nH]cc4Br)n3)cc2)cc1 was 1 µg/mL

MIC (μg/mL) 24 h for S. aureus with input FC(F)(F)c1ccc(Oc2ccc(-c3noc(-c4c[nH]c5ncccc45)n3)cc2)cc1 equals >128 µg/mL

Tested on S. aureus, the item Oc1ccc(-c2nc(-c3ccc(Oc4ccc(C(F)(F)F)cc4)cc3)no2)cc1F showed MIC (μg/mL) 24 h equal to 2 µg/mL

Let me check: COc1ccc(-c2nc(-c3ccc(Oc4ccc(C(F)(F)F)cc4)cc3)no2)cc1[N+](=O)[O-] , system S. aureus, measured MIC (μg/mL) 24 h is >128 µg/mL

S. aureus MIC (μg/mL) 24 h of O=c1ccc(-c2nc(-c3ccc(Oc4ccc(C(F)(F)F)cc4)cc3)no2)c[nH]1 is >128 µg/mL

Noted MIC (μg/mL) 24 h for Oc1c(F)cc(-c2nc(-c3ccc(Oc4ccc(C(F)(F)F)cc4)cc3)no2)cc1F , tested on S. aureus: 2 µg/mL

Note to self: MIC (μg/mL) 24 h of O=C(Nc1c[nH]nc1-c1nc(-c2ccc(Oc3ccc(C(F)(F)F)cc3)cc2)no1)c1ccccc1 with S. aureus was >128 µg/mL

Simply: Oc1ccc(-c2nc(-c3ccc(Oc4ccc(C(F)(F)F)cc4)cc3)no2)cc1O , S. aureus, MIC (μg/mL) 24 h = 2 µg/mL

Entry CCC(C)Nc1c[nH]nc1-c1nc(-c2ccc(Oc3ccc(C(F)(F)F)cc3)cc2)no1 (stereo not shown) under S. aureus had MIC (μg/mL) 24 h of >128 µg/mL

Measured MIC (μg/mL) 24 h for this entry FC(F)(F)c1ccc(Oc2ccc(-c3noc(-c4n[nH]cc4NC4CCCCC4)n3)cc2)cc1 on S. aureus: >128 µg/mL

MIC (μg/mL) 24 h of COc1cc(-c2nc(-c3ccc(Oc4ccc(C(F)(F)F)cc4)cc3)no2)ccc1O , assay on S. aureus, is >128 µg/mL

* * *

system: S. aureus; assay: MIC against S. aureus strains; assay type: cell-based; conditions: S. aureus ATCC 29213, 24 h
Experimental Readout: MIC (μg/mL) 24 h (µg/mL)
Numbers only; they are read as µg/mL.

# compound FC(F)(F)c1ccc(Oc2ccc(-c3noc(-c4n[nH]cc4I)n3)cc2)cc1 ; its MIC (μg/mL) 24 h = 2

Please fill in: MIC (μg/mL) 24 h reported for O=[N+]([O-])c1cc(-c2nc(-c3ccc(Oc4ccc(C(F)(F)F)cc4)cc3)no2)cnc1O = 8

Sure, the documented MIC (μg/mL) 24 h for FC(F)(F)c1ccc(Oc2ccc(-c3noc(-c4n[nH]cc4Cl)n3)cc2)cc1 is 1

The measured MIC (μg/mL) 24 h associated with OCC#Cc1c[nH]nc1-c1nc(-c2ccc(Oc3ccc(C(F)(F)F)cc3)cc2)no1 reads 4

For Oc1ccc(-c2nc(-c3ccc(Oc4ccc(C(F)(F)F)cc4)cc3)no2)cc1 the compound record lists MIC (μg/mL) 24 h as 1

Noted for Nc1c[nH]nc1-c1nc(-c2ccc(Oc3ccc(C(F)(F)F)cc3)cc2)no1 : its MIC (μg/mL) 24 h reads 4
